- System: Mus musculus
- MEASUREMENT NOTES: Analgesic activity in sc dosed CD-1 mouse assessed as inhibition of phenylquinone-induced writhing administered 15 to 90 mins prior challenge measured 5 mins post challenge
- Format: functional
- RECORDED CONDITIONS: CD-1, sc
Please map values of ED50 to classes as shown: bottom end: < 5 mg/kg; midrange: ≥ 5 mg/kg and < 7 mg/kg; top end: ≥ 7 mg/kg

Below are worked cases with known answers.
Br.CCN1CCC2(c3cccc(OC)c3)CCC1C2 (racemic) : top end
Br.Oc1cccc(C23CCC(C2)N(CC2CC2)CC3)c1 (racemic) : midrange
Br.CCCN1CCC2(c3cccc(OC)c3)CCC1C2 (racemic) : top end
Br.CCCN1CCC2(c3cccc(O)c3)CCC1C2 (racemic) : top end

Class for Br.CC(C)=CCN1CCC2(c3cccc(O)c3)CCC1C2 (racemic) ?
top end

Class for Br.CCCCCN1CCC2(c3cccc(OC)c3)CCC1C2 (racemic) ?
midrange

Class for Br.CC(=O)Oc1cccc(C23CCC(C2)N(CCc2cccs2)CC3)c1 (racemic) ?
bottom end

Class for Br.Oc1cccc(C23CCC(C2)N(CCc2ccc(Cl)cc2)CC3)c1 (racemic) ?
bottom end

Class for Br.O=C(CCCN1CCC2(c3cccc(O)c3)CCC1C2)c1ccc(F)cc1 (racemic) ?
bottom end

###

Here, each record is paired with measured log10 ED50 data.
- System: Mus musculus
- MEASUREMENT NOTES: Inhibition of morphine-induced mania in sc dosed CD-1 mouse assessed as inhibition of stereotypic activity measured after 15 to 30 mins
- Type: functional
- RECORDED CONDITIONS: CD-1, sc
Parameter value (number): base-10 log of ED50 in mg/kg.

Br.Oc1cccc(C23CCC(C2)N(CCc2cccs2)CC3)c1 (racemic) : 1.00
Br.CC(=O)Oc1cccc(C23CCC(C2)N(C)CC3)c1 (racemic) : 1.20
Br.COc1cccc(C23CCC(C2)N(CCCC(=O)c2ccc(F)cc2)CC3)c1 (racemic) : 0.57
Br.Oc1cccc(C23CCC(C2)N(CCc2ccccc2)CC3)c1 (racemic) : 0.03
Br.COc1cccc(C23CCC(C2)N(C)CC3)c1 (racemic) : 1.70
Br.Oc1cccc(C23CCC(C2)N(Cc2ccco2)CC3)c1 (racemic) : 0.57
Br.O=C(CCCN1CCC2(c3cccc(O)c3)CCC1C2)c1ccc(F)cc1 (racemic) : 0.30
Br.CCCN1CCC2(c3cccc(OC)c3)CCC1C2 (racemic) : 0.92

Specify reported log10 ED50 for the molecule shown: C=CCN1CC[C@]23c4c5ccc(O)c4O[C@H]2[C@@H](O)C=C[C@H]3[C@H]1C5
-0.37

Specify reported log10 ED50 for the molecule shown: CC(C)=CCN1CC[C@]2(C)c3cc(O)ccc3C[C@H]1[C@H]2C [(+)-PENTAZOCINE]
1.14

Specify reported log10 ED50 for the molecule shown: Br.CCCCCN1CCC2(c3cccc(O)c3)CCC1C2 (racemic)
0.63

###

- Test system: Mus musculus
- MEASUREMENT NOTES: Analgesic activity in sc dosed CD-1 mouse assessed as delay in response to noxious heat stimuli measured after 15 to 60 mins post dosing by D'Amour-Smith tail-flick method
- Format: functional
- RECORDED CONDITIONS: CD-1, Tail
ED50 vs 10 mg/kg: less than gives Condition met; not less than gives Condition not met.

Br.Oc1cccc(C23CCC(C2)N(CCc2ccc(Cl)cc2)CC3)c1 (racemic) : Condition met
Br.CCN1CCC2(c3cccc(OC)c3)CCC1C2 (racemic) : Condition not met
Br.Oc1cccc(C23CCC(C2)N(CCc2cccs2)CC3)c1 (racemic) : Condition not met
Br.CC(=O)Oc1cccc(C23CCC(C2)N(CCc2ccccc2)CC3)c1 (racemic) : Condition met

Note: attention shifts to another entry.
Identify whether the molecule Br.Oc1cccc(C23CCC(C2)N(CCc2ccccc2)CC3)c1 (racemic) records ED50 below 10 mg/kg.
Condition met

###

- Tested on: Mus musculus
- MEASUREMENT NOTES: Analgesic activity in sc dosed CD-1 mouse assessed as delay in response to noxious heat stimuli measured after 15 to 60 mins post dosing by D'Amour-Smith tail-flick method
- Assay type: functional
- RECORDED CONDITIONS: CD-1, Tail
ED50 vs 10 mg/kg: less than gives y; not less than gives n.

Br.Oc1cccc(C23CCC(C2)N(CCc2ccc(Cl)c(Cl)c2)CC3)c1 (racemic) : y
Br.COc1cccc(C23CCC(C2)N(CCc2ccccc2)CC3)c1 (racemic) : n
Br.Cc1ccc(CCN2CCC3(c4cccc(O)c4)CCC2C3)cc1 (racemic) : y
Br.Oc1ccc(CCN2CCC3(c4cccc(O)c4)CCC2C3)cc1 (racemic) : n
CC(C)=CCN1CC[C@]2(C)c3cc(O)ccc3C[C@H]1[C@H]2C [(+)-PENTAZOCINE] : n

Identify whether the compound Br.Oc1cccc(C23CCC(C2)N(CCc2cccc(Cl)c2)CC3)c1 (racemic) records ED50 below 10 mg/kg.
y

Identify whether the compound Br.CC(=O)Oc1cccc(C23CCC(C2)N(CCc2cccs2)CC3)c1 (racemic) records ED50 below 10 mg/kg.
y
